Origin of measurements: ChEMBL document CHEMBL1127480

Here's what we have: pKi numbers for Human immunodeficiency virus type 1 protease (Human immunodeficiency virus 1).
In simple prose, pKi is minus the logarithm base ten of a concentration in moles per litre.

>  <COMPOUND>
CC[C@@H](C)[C@H](NC(=O)[C@H](C(C)C)[C@@H](O)[C@H](O)[C@H](CC1CCCCC1)NC(=O)c1ccccc1SCCCCC[C@@H]1SCC2NC(=O)NC21)C(=O)NCc1ccccn1 (stereo partly specified)

>  <pKi>
7.28

$$$$

Sample CC[C@@H](C)[C@H](NC(=O)[C@H](C(C)C)[C@@H](O)[C@H](O)[C@H](CC1CCCCC1)NC(=O)CCCCCNC(=O)CCCC[C@@H]1SCC2NC(=O)N[C@@H]21)C(=O)NCc1ccccn1 (stereo partly specified) ; pKi observed: 7.70

Sample `CC[C@@H](C)[C@H](NC(=O)[C@H](C(C)C)[C@@H](O)[C@H](O)[C@H](CC1CCCCC1)NC(=O)c1ccccc1OCCCCC[C@@H]1SC[C@H]2NC(=O)N[C@@H]12)C(=O)NCc1ccccn1` ; pKi observed: 8.00

Sample CC[C@@H](C)[C@H](NC(=O)[C@H](C(C)C)[C@@H](O)[C@H](O)[C@H](CC1CCCCC1)NC(=O)CCCC[C@@H]1SCC2NC(=O)NC21)C(=O)NCCc1scnc1C (stereo partly specified) ; pKi observed: 6.89

* * *

Listed compounds paired with reported Control
Tested on: Caco-2
Assay: % control value in caco-2-cell monolayer
Format: functional, Homo sapiens
Design: concentration or dose not given beside the values
Number in %, nothing else.

>  <COMPOUND>
CC[C@@H](C)[C@H](NC(=O)[C@H](C(C)C)[C@@H](O)[C@H](O)[C@H](CC1CCCCC1)NC(=O)c1ccccc1OCCCCC[C@@H]1SC[C@H]2NC(=O)N[C@@H]12)C(=O)NCc1ccccn1

>  <ASSAY_ENDPOINT>
Control

>  <QUANTITATIVE_READOUT>
85

$$$$

Sample CC[C@@H](C)[C@H](NC(=O)[C@H](C(C)C)[C@@H](O)[C@H](O)[C@H](CC1CCCCC1)NC(=O)CCCC[C@@H]1SCC2NC(=O)N[C@@H]21)C(=O)NCc1ccccn1 (stereo not given in full) ; Control observed: 129

Sample CC[C@@H](C)[C@H](NC(=O)[C@H](C(C)C)[C@@H](O)[C@H](O)[C@H](CC1CCCCC1)NC(=O)CCCCCNC(=O)CCCC[C@@H]1SCC2NC(=O)N[C@@H]21)C(=O)NCc1ccccn1 (stereo not given in full) ; Control observed: 111

Sample `O=C(O)CCCC[C@@H]1SC[C@@H]2NC(=O)N[C@@H]21` ; Control observed: 0

Sample CC[C@@H](C)[C@H](NC(=O)[C@H](C(C)C)[C@@H](O)[C@H](O)[C@H](CC1CCCCC1)NC(=O)[C@@H](NC(=O)CCCC[C@H]1SC[C@H]2NC(=O)NC21)C(C)C)C(=O)NCc1ccccn1 (stereo not given in full) ; Control observed: 122

* * *

Molecular target: Human immunodeficiency virus type 1 protease (Human immunodeficiency virus 1, UniProt Q72874)
Listed compounds paired with reported Ki
Number in µM, nothing else.

>  <COMPOUND>
CC[C@@H](C)[C@H](NC(=O)[C@H](C(C)C)[C@@H](O)[C@H](O)[C@H](CC1CCCCC1)NC(=O)CCCC[C@@H]1SCC2NC(=O)N[C@@H]21)C(=O)NCc1ccccn1 (stereo partly drawn)

>  <UNITS_OF_MEASURE>
µM

>  <Ki>
0.045

$$$$

With those in mind, consider the next compound.
Sample CC[C@@H](C)[C@H](NC(=O)[C@H](C(C)C)[C@@H](O)[C@H](O)[C@H](CC1CCCCC1)NC(=O)c1ccccc1SCCCCC[C@@H]1SCC2NC(=O)NC21)C(=O)NCCc1scnc1C (stereo partly drawn) ; Ki observed: 0.004
